- Test system: PPARg:RXRa DBDmut IVT, anti-RXR (DBD mutation: RXRa K156A/R161A, NR concentration 270 nM, RXRa partner concentration 90 nM)
- Measurement Notes: PBM binding z-score (relative to random genomic background probes); higher = stronger binding; sequences stand for … in GC…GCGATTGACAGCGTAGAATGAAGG
If the reported PBM binding z-score equals or exceeds 0.8, assign MET. If not, assign NOT MET.

These recorded examples may help you get a feel for the data.
CTCGAAAGGTCGTGCTGAGGTGAGTATACCAAAC	MET
ACTCGGAGGACTAAGGTCAGAGCTACGCCAGTGA	NOT MET
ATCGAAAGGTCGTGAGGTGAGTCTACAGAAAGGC	NOT MET
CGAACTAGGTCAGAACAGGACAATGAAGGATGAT	MET

Attention now shifts to the item below.
Does the sequence `CAGAGTAGGTTATGGGGCATTCAGGCAACGGTGA` have recorded PBM binding z-score that is 0.8 or more?
MET

----------
- Tested on: RXRa DBDmut IVT, anti-RXR (DBD mutation: RXRa K156A/R161A, NR concentration 90 nM)
- Measurement Notes: PBM binding z-score (relative to random genomic background probes); higher = stronger binding; sequences stand for … in GC…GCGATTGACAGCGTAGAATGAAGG
So basically: PBM binding z-score at 1 or higher? That is 1. Lower than 1? That is 0.

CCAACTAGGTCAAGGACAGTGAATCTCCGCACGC	1
GCTGCTAGGTCAGGTTGGTCATCTAACGGGTACG	0
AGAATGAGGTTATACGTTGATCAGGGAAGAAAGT	1
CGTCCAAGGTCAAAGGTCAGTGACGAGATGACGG	1
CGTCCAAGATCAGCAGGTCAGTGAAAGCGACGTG	0

Assess whether reported PBM binding z-score for `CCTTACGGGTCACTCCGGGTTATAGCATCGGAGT` sits at 1 or higher.
1

Reported PBM binding z-score reaches at least 1 for `TCATATAAGTAAAAGGTGAAAGTCGGTGTGGTAA` ?
1

Confirm if PBM binding z-score reported for the sequence `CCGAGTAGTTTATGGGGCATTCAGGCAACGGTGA` is 1 or above.
0

Is PBM binding z-score for `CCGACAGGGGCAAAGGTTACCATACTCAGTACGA` at or above 1?
1

# bool: PBM binding z-score of `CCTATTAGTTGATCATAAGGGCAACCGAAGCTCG` >= 1
0

----------
- Test system: RARb homodimer (NR concentration 270 nM)
- Measurement Notes: PBM binding z-score (relative to random genomic background probes); higher = stronger binding; sequences stand for … in GC…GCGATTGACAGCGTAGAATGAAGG
Property Label: PBM binding z-score
One number for each entry.

TCATATAGGTAAAGGTGAAACTCGAACGATATGA	1.6
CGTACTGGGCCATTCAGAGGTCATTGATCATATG	4.23
AGTCAAAGTTCAGGACGAGGTAGCGTAAAGCACG	2.76
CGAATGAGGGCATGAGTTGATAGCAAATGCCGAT	0.499
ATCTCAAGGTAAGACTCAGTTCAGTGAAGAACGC	0.641
GCGTACGGGTCAAAGGTTATAGCATGAATAGAAT	3.14

I need PBM binding z-score for every entry listed below, if you could help.
1. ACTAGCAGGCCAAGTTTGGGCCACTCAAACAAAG
2. ATATGTAGGTTATCGCGTCATTCAGTTTGCGCAT
3. CATCCAAGGTCAGCAGGTCAGTGAAAGCGACGTG
4. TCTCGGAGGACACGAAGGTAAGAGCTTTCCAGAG
5. CCAGACAGGTGAGCAGGTAACTCAGCCTCGATTA
6. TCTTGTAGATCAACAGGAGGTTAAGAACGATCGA
7. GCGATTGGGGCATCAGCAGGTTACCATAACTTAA
8. ATCTCTAGGTAACAAGTTCAGGGAAAGAGAGGAC

0.113
0.515
5.04
0.164
0.399
0.615
0.917
1.98

Values were extracted from the supplement of paper PMC6555819.
